# protocol description: Inhibition of Escherichia coli recombinant N-terminal hexahistidine-tagged CTP synthetase expressed in Escherichia coli BL21 (DE3) assessed as inhibition of CTP formation in TAPS buffer at pH 8.5 by continuous spectrophotometric assay in presence of 150 mM NH4Cl
pIC50: −log10 of the molar value.

| chem smiles | pIC50 |
| --- | --- |
| Cn1c(=O)c2nc[nH]c2n(C)c1=O | 3.40 |
| Cn1c(=O)c2[nH]c(=O)[nH]c2n(C)c1=O | 4.00 |
| O=c1[nH]c(=O)c2nc[nH]c2[nH]1 | 3.66 |
| Oc1nc(O)c2nc(O)[nH]c2n1 | 3.95 |
| Cn1c(=O)[nH]c2[nH]c(=O)n(C)c2c1=O | 3.96 |
| Cn1c(=O)[nH]c2ncn(C)c2c1=O | 3.44 |

###

# protocol description: Multisite inhibition of Escherichia coli recombinant N-terminal hexahistidine-tagged CTP synthetase expressed in Escherichia coli BL21 (DE3) assessed as inhibition of CTP formation in Hepes buffer at pH 8 in presence of 1.36 mM NH4Cl
pIC50: −log10 of the molar value.
test readout: pIC50

| compound | test readout | result |
| --- | --- | --- |
| Cn1c(=O)c2c(ncn2C)n(C)c1=O [CAFFEINE] | pIC50 | 3.35 |

###

# protocol description: Inhibition of Escherichia coli recombinant N-terminal hexahistidine-tagged CTP synthetase expressed in Escherichia coli BL21 (DE3) assessed as inhibition of CTP formation by continuous spectrophotometric assay in presence of 10 mM L-glutamine and 0.15 mM GTP
# condition label: read-out: IC50
pIC50: −log10 of the molar value.

| chem smiles | pIC50 |
| --- | --- |
| Cn1cnc2c1c(=O)[nH]c(=O)n2C | 3.38 |
| Cn1c(=O)c2c(ncn2C)n(C)c1=O | 3.41 |
| Nc1[nH]cnc2ncnc1-2 | 1.80 |
| Cn1c(=O)[nH]c(=O)c2c1[nH]c(=O)n2C | 4.20 |
